These data points were gathered from the NIST ThermoML archive (doi:10.1016/j.tca.2013.03.025).

test summary: refractive index (Na D-line) (dimensionless)
run conditions: 288.15 K; 101.33 kPa; Liquid; Standard Abbe refractometry
± gives the expanded uncertainty stated by the source.
Would you kindly list refractive index for each of these molecules?

Data request: Which refractive index value is on record for "OCCCO" ?
Data returned: 1.44072 ± 0.00037

Data request: Quick one: refractive index for "CCCO" ?
Data returned: 1.38751 ± 0.00033

Data request: State the recorded refractive index for this entry: CCCCOC(=O)C(C)O (centres undefined) [butyl 2-hydroxypropanoate]
Data returned: 1.42379 ± 0.00068

Data request: Tell me the measured refractive index of CC(O)CO (centres undefined) , please.
Data returned: 1.43437 ± 0.00033

----------
run conditions: 313.15 K; 101 kPa; Liquid; Vibrating tube method
Field: mass density. Provide a value for each of the compounds that follow.
Report the figure in kg/m3 without appending any unit label.

Data request: Data request, read-out mass density, for "CCCO"
Data returned: 787.521

Data request: Quick one: mass density of "OCCCO" ?
Data returned: 1040.35

Data request: Which value of mass density has been reported for CC(O)CO (centres undefined) in the records?
Data returned: 1021.35

Data request: Look up mass density for this compound: CCCCOC(=O)C(C)O (centres undefined) [butyl 2-hydroxypropanoate]
Data returned: 962.603

----------
So I've got a bunch of compounds here, and I need their refractive index values.
test summary: refractive index (Na D-line) (dimensionless)
run conditions: 303.15 K; 101.33 kPa; Liquid; Standard Abbe refractometry
Field format: numeric only.

Data request: If you can, please state the reported refractive index value of "OCCCO" .
Data returned: 1.43653

Data request: Need refractive index, item CCCCOC(=O)C(C)O (centres undefined) [butyl 2-hydroxypropanoate]
Data returned: 1.41697

Data request: Query: refractive index; subject: CC(O)CO (centres undefined)
Data returned: 1.42934

Data request: Give the measured refractive index of "CCCO" .
Data returned: 1.38137

----------
run conditions: 308.15 K; 101 kPa; Liquid; Concentric cylinders viscometry
readout: viscosity (mPa·s)
Report only the number, with the unit mPa·s understood.

Data request: What value of measured viscosity is listed for CCCCOC(=O)C(C)O (centres undefined) [butyl 2-hydroxypropanoate] ?
Data returned: 2.481

Data request: Using the record for CC(O)CO (centres undefined) , report its viscosity.
Data returned: 25.45

Data request: Which viscosity is listed for "OCCCO" ?
Data returned: 26.61

Data request: So what's the measured viscosity for this one? "CCCO"
Data returned: 1.542

----------
run conditions: 308.15 K; 101 kPa; Liquid; Vibrating tube method
Field: mass density. Provide a value for each of the compounds that follow.
Give the quantity in kg/m3, number only.

Data request: # query: mass density of entry CCCCOC(=O)C(C)O (centres undefined) [butyl 2-hydroxypropanoate]
Data returned: 967.567

Data request: What measured mass density goes with "OCCCO" ?
Data returned: 1043.5

Data request: Entry CC(O)CO (centres undefined) has what mass density?
Data returned: 1025.14

Data request: What does the record list as mass density for "CCCO" ?
Data returned: 791.638

----------
run conditions: 293.15 K; 101 kPa; Liquid; Vibrating tube method
Provide the reported mass density of each item.
Number only, in kg/m3; omit the unit.

Data request: Field request: mass density | item: CCCCOC(=O)C(C)O (centres undefined) [butyl 2-hydroxypropanoate]
Data returned: 982.366

Data request: Which mass density value is on record for "OCCCO" ?
Data returned: 1052.86

Data request: // query mass density value for entry "CCCO"
Data returned: 803.767

Data request: Item CC(O)CO (centres undefined) has what recorded mass density?
Data returned: 1036.25
